# Test system: NCI-H526 cell line
# test summary: Cell viability assay for H526 cell (EZ-Cytox)
# Format: cell-based
# measurement conditions: Homo sapiens, NCI-H526, 120 h; H526 cells, 5 days, 3000 nM to 0.46 nM
pIC50: −log10 of the molar value.
endpoint name: pIC50

Consider the worked cases shown below.
- compound: "COc1cc(C(=O)NC2CCN(C(=O)COc3cccc4c3C(=O)N(C3CCC(=O)NC3=O)C4=O)CC2)ccc1Nc1ncc2c(n1)N(C1CCCC1)CC(F)(F)C(=O)N2C (stereo not shown)"
  pIC50: "> 6.70"
- compound: "COc1cc(C(=O)N2CCC(CCN3CCN(c4cccc5c4C(=O)N(C4CCC(=O)NC4=O)C5=O)CC3)CC2)ccc1Nc1ncc2c(n1)N(C1CCCC1)CC(F)(F)C(=O)N2C (stereo not shown)"
  pIC50: "> 6.40"
- compound: "COc1cc(C(=O)NC2CCN(C(=O)CCN3CCN(c4cccc5c4C(=O)N(C4CCC(=O)NC4=O)C5=O)CC3)CC2)ccc1Nc1ncc2c(n1)N(C1CCCC1)CC(C)(C)C(=O)N2C (stereo not shown)"
  pIC50: "> 6.70"
- compound: "C=C[C@@]1(F)CN(C2CCCC2)c2nc(Nc3ccc(C(=O)NC4CCN(C(=O)CCN5CCN(c6cccc7c6C(=O)N(C6CCC(=O)NC6=O)C7=O)CC5)CC4)cc3OC)ncc2N(C)C1=O (single isomer, unassigned)"
  pIC50: "> 7.00"
- compound: "COc1cc(C(=O)NN2CCN(C(=O)CCC3CCN(c4cccc5c4C(=O)N(C4CCC(=O)NC4=O)C5=O)CC3)CC2)ccc1Nc1ncc2c(n1)N(C1CCCC1)CC(F)(F)C(=O)N2C (stereo not shown)"
  pIC50: "> 7.00"

Entry COc1cc(C(=O)NC2CCN(C(=O)CCN3CCN(c4cccc5c4C(=O)N(C4CCC(=O)NC4=O)C5=O)CC3)CC2)c(Cl)cc1Nc1ncc2c(n1)N(C1CCCC1)CC(F)(F)C(=O)N2C (stereo not shown) : reported pIC50 = ?
> 7.00

Entry COc1cc(C(=O)NC2CCN(C(=O)CCN3CCN(c4ccc5c(c4)CN(C4CCC(=O)NC4=O)C5=O)CC3)CC2)ccc1Nc1ncc2c(n1)N(C(C)C)CC(F)(F)C(=O)N2C (stereo not shown) has what pIC50?
> 7.52

# pIC50 lookup, item COc1cc(C(=O)NN2CCN(C3CN(c4ccc5c(c4)C(=O)N(C4CCC(=O)NC4=O)C5=O)C3)CC2)ccc1Nc1ncc2c(n1)N(C1CCCC1)CC(F)(F)C(=O)N2C (stereo not shown)
> 7.30

Please look up its pIC50: COc1cc(C(=O)NC2CCN(CCOc3cccc4c3C(=O)N(C3CCC(=O)NC3=O)C4=O)CC2)c(Cl)cc1Nc1ncc2c(n1)N(C1CCCC1)CC(F)(F)C(=O)N2C (stereo not shown)
> 6.40

Fill blank: measured pIC50 of the compound COc1cc(C(=O)NCC2CCN(CC3CCN(c4cccc5c4C(=O)N(C4CCC(=O)NC4=O)C5=O)CC3)CC2)ccc1Nc1ncc2c(n1)N(C1CCCC1)CC(F)(F)C(=O)N2C (stereo not shown) is ____.
> 7.30
